Please provide measured growth for the entries that follow.
- System: SR leukemia
- test description: NCI-60 one-dose screen, 48 h (100 = growth as untreated, 0 = no growth, -100 = all killed)
- assay setup: 10 µM unless noted
This is part of a sample that, as a whole, favours compounds with a hit. Of some 83,000 tested, about 20% had one in any assay.
// return numeric value only (unit: %, not printed)

Exercise: Please look up its growth: `O=S(=O)(Nc1ccc(-n2cnc3cc(-c4ccc(O)cc4)ccc32)cc1)c1ccccc1`
Solution: 78

Exercise: Would you mind doing `O=C(CCN1CCCC1)Nc1ccc2c(NCCCc3ccccc3)c3ccccc3nc2c1` as well?
Solution: -22.3

Exercise: Would you mind doing `COc1cccc(-c2nc3occn3c2-c2ccnc(NCCNS(=O)(=O)c3cccc4ccccc34)n2)c1` as well?
Solution: 110

Exercise: Would you mind doing `O=C(Nc1cccc(C2=NCCN2)c1)c1ccc(-c2ccc(C(=O)Nc3cccc(C4=NCCN4)c3)cc2)cc1` as well?
Solution: 72.4

Exercise: Would you mind doing `ClC1=C(Br)C(Br)(Br)C(=C(Br)Br)C1(Br)Br` as well?
Solution: 44

Exercise: Would you mind doing `N#C/C(=C\c1ccc([N+](=O)[O-])s1)c1nc2cc(Br)ccc2s1` as well?
Solution: -18.3

Exercise: Would you mind doing `C=C(C)[C@@H]1CC[C@]2(CN)CC[C@]3(C)[C@H](CC[C@@H]4[C@@]5(C)CCCNC(C)(C)[C@@H]5CC[C@]43C)[C@@H]12` as well?
Solution: -38.7

Exercise: Would you mind doing `Fc1ccc(-c2cn3c(nc4ccccc43)c(-c3ccccc3)n2)cc1` as well?
Solution: 91.5

Exercise: Would you mind doing `CCOc1ccc(Nc2nc(-c3ccc4c(c3)NC(=O)CO4)cs2)cc1` as well?
Solution: 64.6

Exercise: Would you mind doing `COc1ccc(C(=O)c2nc3ccccc3n2CC(=O)c2ccc(Cl)cc2)cc1` as well?
Solution: 16.7

Exercise: Would you mind doing `CC[C@]12C=CCN3CC[C@@]4(c5cc(NC(=O)CCC(=O)O[C@H]6CC[C@H]7[C@@H]8CCC9=CC(=O)CC[C@@H]9[C@H]8CC[C@]67C)c(OC)cc5N(C)[C@H]4[C@@](O)(C(=O)OC)[C@@H]1OC(C)=O)[C@@H]32` as well?
Solution: 40

Exercise: Would you mind doing `NS(=O)(=O)c1ccc(CCn2c(SCC(=O)c3ccc(Cl)cc3)nc3ccccc3c2=O)cc1` as well?
Solution: 100

Exercise: Would you mind doing `O=C(CCN1CCCC1)c1ccc([N+](=O)[O-])cc1` as well?
Solution: 98

Exercise: Would you mind doing `CN1CCN(c2ccc(NC3=C(Cl)C(=O)c4ncccc4C3=O)cc2C(F)(F)F)CC1` as well?
Solution: 9.03

Exercise: Would you mind doing `Cc1ccc(S(=O)(=O)NNC(=O)/C(=C\c2ccc(Cl)cc2)c2nc3ccccc3s2)cc1` as well?
Solution: 72.8

Exercise: Would you mind doing `CCOC(=O)Nc1ccc(-c2ccc3c(c2)NC(=O)/C3=C\c2ccc[nH]2)cc1` as well?
Solution: 19.3

Exercise: Would you mind doing `O=C(/C=C(O)/C=C/c1ccc(SC(F)(F)F)cc1)/C=C/c1ccc(SC(F)(F)F)cc1` as well?
Solution: 40.8

Exercise: Would you mind doing `CC(=O)[C@@H]1CC[C@]2(C(N)=O)CC[C@]3(C)[C@H](CC[C@@H]4[C@@]5(C)CCCNC(C)(C)[C@@H]5CC[C@]43C)[C@@H]12` as well?
Solution: 43.7

Exercise: Would you mind doing `O=C(Nc1ccccc1)Nc1ccc2cc3ccc(NC(=O)Nc4ccccc4)cc3nc2c1` as well?
Solution: -18.6

Exercise: Would you mind doing `O=C(O)c1ccc(NCc2cn(-c3ccc(C(F)(F)F)cc3)nc2-c2ccc(C(=O)O)cc2)cc1` as well?
Solution: 97.3

Exercise: Would you mind doing `O=C(Nc1ccccc1C(=O)N/N=C(\c1ccccc1)c1ccccn1)c1ccc(F)cc1` as well?
Solution: 14.4

Exercise: Would you mind doing CCSCC1CC(O)(c2ccccc2)CC(c2ccc(F)cc2)O1 (configuration not stated) as well?
Solution: -22

Exercise: Would you mind doing `Cc1ccc(CNc2c3ccccc3nc3cc(NC(=O)CCN4CCCC4)ccc23)cc1` as well?
Solution: -49.4

Exercise: Would you mind doing `COc1ccc(NC(N)=NCCCOc2ccc(F)cc2)cc1` as well?
Solution: 93.6

Exercise: Would you mind doing CC1(C)CC(O)CCCCCCOc2c(CN)cccc2NC(=O)c2nc(cnc2N)-c2ccc(cc2)S1(=O)=O (configuration not stated) as well?
Solution: -16.8

Exercise: Would you mind doing CCOC(=O)C1=C(CCl)NC(=O)NC1c1ccc2c(c1)OCO2 (configuration not stated) as well?
Solution: 28

Exercise: Would you mind doing `NS(=O)(=O)c1ccc(CCN2C(=O)C=CC2=O)cc1` as well?
Solution: 91.6

Exercise: Would you mind doing `COc1cccc(-c2ccc3c(c2)NC(=O)/C3=C\c2ccc[nH]2)c1` as well?
Solution: 8.43

Exercise: Would you mind doing `Brc1ccc2[nH]cc(-c3cncn3CCc3ccccc3)c2c1` as well?
Solution: 40.7

Exercise: Would you mind doing `N#Cc1c(NCc2ccccc2I)sc2c1CCCCC2` as well?
Solution: 93.8

Exercise: Would you mind doing CC1=C(C(=O)/C=C/c2c[nH]c3ccccc23)C(c2ccccc2)NC(=S)N1 (configuration not stated) as well?
Solution: 88.8

Exercise: Would you mind doing `Cc1ccc(-n2c3c(c(-c4ccccc4)c2-c2ccccc2)C2=NCCN2C=N3)cc1` as well?
Solution: 80

Exercise: Would you mind doing `C=C1C(=O)O[C@H]2[C@H]1CC/C(C(=O)NCCCCCNC(=O)/C1=C/CC[C@@]3(C)O[C@H]3[C@H]3OC(=O)C(=C)[C@@H]3CC1)=C\CC[C@@]1(C)O[C@@H]21` as well?
Solution: 83.6

Exercise: Would you mind doing `Nc1c(S(=O)(=O)O)cc2c3c(cccc13)C(=O)OC2=O` as well?
Solution: 114

Exercise: Would you mind doing `COc1ccc(N2CCN(c3ccc(NC4=C(Cl)C(=O)c5ncccc5C4=O)cc3)CC2)cc1` as well?
Solution: 12.9

Exercise: Would you mind doing `COc1ccc(C/C(C)=C(/c2ccc(OCCCN(C)C)cc2)c2ccc(OC(C)=O)cc2)cc1` as well?
Solution: 9.44

Exercise: Would you mind doing `CCC(=O)Oc1ccc(/C(=C(\C)c2ccccc2)c2ccc(OCCN3CCCCC3)cc2)cc1` as well?
Solution: 20.3

Origin of values: PubChem BioAssay (NCI)
